# residual activity per entry
- testedSystem: cAMP-dependent protein kinase catalytic subunit alpha (Homo sapiens) (UniProt P17612)
- conditionContext: at 10 µM

{"columns": ["chemicalStructure", "residual activity [%]"],
 "data": [
  ["CC(=O)O/N=C1\\C(=C2\\C(=O)Nc3cc(Br)ccc32)Nc2ccccc21", 93],
  ["Cn1nc2c3c(cccc31)C(=O)c1ccccc1-2", 90],
  ["COc1cc2ncc(-c3ccccc3)nc2cc1OC", 74],
  ["CN(C)CCCn1cc(C2=C(c3c[nH]c4ccccc34)C(=O)NC2=O)c2ccccc21", 20],
  ["O=Nc1c(-c2c(O)[nH]c3ccccc23)[nH]c2ccccc12", 54],
  ["CC(C)n1cnc2c(NCc3ccccc3)nc(NCCCO)nc21", 99],
  ["Cc1cc2ncc(-c3ccccc3)nc2cc1C", 75],
  ["O=C1Nc2cc(Br)ccc2/C1=C1/Nc2ccccc2/C1=N\\O", 97],
  ["Cc1nc(-c2ccccc2)c(-c2ccncc2)o1", 85],
  ["COc1ccc(CNc2nc(N(CCO)CCO)nc3c2ncn3C(C)C)cc1", 85],
  ["CC(C)n1cnc2/c(=N/c3cccc(Cl)c3)nc(NCCO)[nH]c21", 89]
]}
